All values here come from ChEMBL document CHEMBL3097991.

Reported values of MIC for individual entries
- Tested on: Mycobacterium tuberculosis
- Test Summary: Antimicrobial activity against Mycobacterium tuberculosis H37Rv infected in african green monkey Vero cells
- Assay type: functional
Please reply with the bare figure in µM and do not write the unit itself.

Known results for compounds:
O=C1Nc2ccccc2/C1=C1\C(=O)Nc2ccccc21 : 27
O=C1C=Cc2nocc2/C1=C1/Nc2ccccc2C1=O : 0.57
CO[C@H]1/C=C/O[C@@]2(C)Oc3c(C)c(O)c4c(O)c(c(/C=N/N5CCN(C)CC5)c(O)c4c3C2=O)NC(=O)/C(C)=C\C=C\[C@H](C)[C@H](O)[C@@H](C)[C@@H](O)[C@@H](C)[C@H](OC(C)=O)[C@@H]1C : 0.038

Turning now to a further record.
Observed MIC, Mycobacterium tuberculosis, NNC(=O)c1ccncc1 : 0.22
